- TARGET_DESC: EGFR L858R/T790M/C797S (BaF3-LTC cells) (Homo sapiens, UniProt P00533, C797S/L858R/T790M)
- Construct: expressed in transfected cells; host or cells: BaF3
- Sequence (P00533 25-1210 T790M/C797S/L858R): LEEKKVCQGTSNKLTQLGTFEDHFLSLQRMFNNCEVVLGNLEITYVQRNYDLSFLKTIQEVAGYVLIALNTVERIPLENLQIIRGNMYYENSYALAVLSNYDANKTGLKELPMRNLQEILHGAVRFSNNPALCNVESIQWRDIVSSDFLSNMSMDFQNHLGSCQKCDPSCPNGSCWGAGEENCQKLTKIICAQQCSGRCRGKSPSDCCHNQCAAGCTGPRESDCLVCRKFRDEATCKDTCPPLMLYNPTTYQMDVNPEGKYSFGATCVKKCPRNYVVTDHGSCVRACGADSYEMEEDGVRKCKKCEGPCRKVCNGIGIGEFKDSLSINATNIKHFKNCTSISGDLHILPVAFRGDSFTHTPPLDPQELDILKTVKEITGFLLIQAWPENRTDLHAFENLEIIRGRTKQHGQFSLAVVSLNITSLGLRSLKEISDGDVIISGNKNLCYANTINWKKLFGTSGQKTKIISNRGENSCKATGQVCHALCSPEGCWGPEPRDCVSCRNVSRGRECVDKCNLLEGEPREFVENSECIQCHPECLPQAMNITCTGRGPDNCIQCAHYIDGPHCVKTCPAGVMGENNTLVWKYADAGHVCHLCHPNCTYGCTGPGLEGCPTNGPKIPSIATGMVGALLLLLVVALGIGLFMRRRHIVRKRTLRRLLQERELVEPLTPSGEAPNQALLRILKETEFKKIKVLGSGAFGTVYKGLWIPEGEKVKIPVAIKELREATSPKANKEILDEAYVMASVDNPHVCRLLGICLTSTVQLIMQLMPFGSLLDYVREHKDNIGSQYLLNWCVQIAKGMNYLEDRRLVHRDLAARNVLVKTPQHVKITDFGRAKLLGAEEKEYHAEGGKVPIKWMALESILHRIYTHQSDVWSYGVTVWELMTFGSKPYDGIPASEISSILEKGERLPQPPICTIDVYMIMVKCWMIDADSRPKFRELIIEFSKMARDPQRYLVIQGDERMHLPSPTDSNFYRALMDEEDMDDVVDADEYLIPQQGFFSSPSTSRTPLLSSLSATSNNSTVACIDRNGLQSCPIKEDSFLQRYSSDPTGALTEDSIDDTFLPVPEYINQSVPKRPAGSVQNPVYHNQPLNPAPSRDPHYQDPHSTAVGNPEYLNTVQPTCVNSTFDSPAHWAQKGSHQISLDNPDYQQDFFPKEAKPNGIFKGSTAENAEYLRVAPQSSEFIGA
- TEST: EGFR degradation HTRF assay, BaF3-LTC cells
- Assay type: cell-based
- DETAILS: BaF3-LTC cells; EGFR degradation, IC50 (DC50) from curve fit; read-out: DC50(nM) BaF3-LTC
Field: label. Allowed values: class 1 (DC50 < 9 nM) or class 0 (DC50 >= 9 nM).

COMPOUND	DISCRETE_LABEL
CCc1ccc2c(P(C)(C)=O)c(Nc3nc(Nc4cc(C5CC5)c(N5CCC(N6CCN(CCc7cc(F)c([C@H]8CCC(=O)NC8=O)c(F)c7)CC6)CC5)cc4OC)ncc3Br)ccc2n1	class 1
CCc1ccc2c(P(C)(C)=O)c(Nc3nc(Nc4cc(CC)c(N5CCC(N6CCN(C(=O)Cc7c(C)ccc8c7C(C)(C)C(=O)N8C7CCC(=O)NC7=O)CC6)CC5)cc4OC)ncc3Br)ccc2n1 (stereo not shown)	class 1
CCOc1cc(N2CCC(N3CCN(CC4CN(c5cccc6c5oc(=O)n6C5CCC(=O)NC5=O)C4)CC3)CC2)c(CC)cc1Nc1ncc(Br)c(Nc2ccc3nc(CC)ccc3c2P(C)(C)=O)n1 (stereo not shown)	class 1
CCOc1cc(N2CCC(N3CCN(C[C@@H]4CCN(c5cccc6c5oc(=O)n6C5CCC(=O)NC5=O)C4)CC3)CC2)c(CC)cc1Nc1ncc(Br)c(Nc2ccc3c(=O)n(CC)ncc3c2P(C)(C)=O)n1 (stereo partly shown)	class 0
Cc1ccc2c(P(C)(C)=O)c(Nc3nc(Nc4cc(C)c(N5CCC(N6CCN(CCc7cccc8c7n(C)c(=O)n8C7CCC(=O)NC7=O)CC6)CC5)cc4OC4CC4)ncc3Br)ccc2n1 (stereo not shown)	class 1
CCOc1cc(N2CCC(N3CCN(C(=O)[C@@H]4CCN(c5cc(F)c([C@H]6CCC(=O)NC6=O)c(F)c5)C4)CC3)CC2)c(CC)cc1Nc1ncc(Br)c(Nc2ccc3nc(C)c(F)cc3c2P(C)(C)=O)n1	class 1
COc1cc(N2CCC3(CCN(C(=O)[C@@H]4CCN(c5cc(F)c([C@H]6CCC(=O)NC6=O)c(F)c5)C4)CC3)CC2)c(C)cc1Nc1ncc(Br)c(Nc2ccc3nccnc3c2P(C)(C)=O)n1	class 0
CCOc1cc(N2CCC(N3CCN(CCc4ccc(F)c5c4oc(=O)n5C4CCC(=O)NC4=O)CC3)CC2)c(CC)cc1Nc1ncc(Br)c(Nc2ccc3nc(CC)ccc3c2P(C)(C)=O)n1 (stereo not shown)	class 0
CCOc1cc(N2CCC(N3CCN(CCC4CCN(c5cc(F)c6c(c5)n(CC)c(=O)n6C5CCC(=O)NC5=O)CC4)CC3)CC2)c(CC)cc1Nc1ncc(Br)c(Nc2ccc3c(=O)n(CC)ncc3c2P(C)(C)=O)n1 (stereo not shown)	class 0
CCOc1cc(N2CCC(N3CCN(C[C@H]4CCN(c5cccc6c5oc(=O)n6C5CCC(=O)NC5=O)C4)CC3)CC2)c(CC)cc1Nc1ncc(Br)c(Nc2ccc3c(=O)n(CC)ncc3c2P(C)(C)=O)n1 (stereo partly shown) [Example 611]	class 0

---

- TARGET_DESC: EGFR L858R/T790M (H1975-clone #36, homozygous) (Homo sapiens, UniProt P00533, L858R/T790M)
- Construct: designed to specifically target WT EGFR but preserve the L858R/T790M copy; host or cells: H1975-clone #36
- Sequence (P00533 25-1210 T790M/L858R): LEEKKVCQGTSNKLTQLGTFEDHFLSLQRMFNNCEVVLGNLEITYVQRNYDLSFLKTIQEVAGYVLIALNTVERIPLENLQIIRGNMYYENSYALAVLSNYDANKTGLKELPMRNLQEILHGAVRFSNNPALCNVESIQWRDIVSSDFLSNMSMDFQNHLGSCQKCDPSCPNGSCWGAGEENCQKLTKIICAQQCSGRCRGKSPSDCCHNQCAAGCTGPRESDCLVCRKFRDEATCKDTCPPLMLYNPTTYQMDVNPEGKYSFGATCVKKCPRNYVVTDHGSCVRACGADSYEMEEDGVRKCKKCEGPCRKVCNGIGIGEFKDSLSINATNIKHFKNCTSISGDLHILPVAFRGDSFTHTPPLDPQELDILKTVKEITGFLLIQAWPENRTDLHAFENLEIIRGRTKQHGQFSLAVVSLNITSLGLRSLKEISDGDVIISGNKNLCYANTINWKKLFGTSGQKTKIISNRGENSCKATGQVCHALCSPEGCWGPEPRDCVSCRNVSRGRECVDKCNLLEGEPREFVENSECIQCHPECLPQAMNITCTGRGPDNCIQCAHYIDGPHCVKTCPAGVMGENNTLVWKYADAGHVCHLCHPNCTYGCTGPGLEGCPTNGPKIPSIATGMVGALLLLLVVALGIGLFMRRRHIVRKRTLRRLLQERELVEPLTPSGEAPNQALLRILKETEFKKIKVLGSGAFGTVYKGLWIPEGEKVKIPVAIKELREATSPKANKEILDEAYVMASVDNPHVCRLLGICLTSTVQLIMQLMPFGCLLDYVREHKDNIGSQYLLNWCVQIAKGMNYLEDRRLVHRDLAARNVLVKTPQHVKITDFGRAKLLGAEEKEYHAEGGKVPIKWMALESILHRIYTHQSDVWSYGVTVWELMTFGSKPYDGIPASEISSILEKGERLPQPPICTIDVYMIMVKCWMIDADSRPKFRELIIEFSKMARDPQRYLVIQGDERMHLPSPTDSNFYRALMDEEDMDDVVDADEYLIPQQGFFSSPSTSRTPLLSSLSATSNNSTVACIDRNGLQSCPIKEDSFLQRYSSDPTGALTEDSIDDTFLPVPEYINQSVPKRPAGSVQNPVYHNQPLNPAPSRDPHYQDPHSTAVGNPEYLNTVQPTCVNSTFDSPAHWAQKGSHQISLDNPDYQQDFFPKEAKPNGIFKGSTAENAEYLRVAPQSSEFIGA
- TEST: EGFR degradation HTRF assay, H1975-clone #36 cells
- Type: cell-based
- DETAILS: H1975 #36, 16h treatment
Counter-ions that a name gives are not always drawn.
Catalogue of log10 of DC50 values
ENDPOINT_LABEL: log10 of DC50 (log10 of the value in nM)

COMPOUND	TARGET_DESC	NUMBER
COc1cc(N2CCN(CCCC(=O)N[C@H](C(=O)N3C[C@H](O)C[C@H]3C(=O)N[C@@H](C)c3ccc(-c4scnc4C)cc3)C(C)(C)C)CC2)c(C)cc1Nc1ncc(Br)c(Nc2ccc3nccnc3c2P(C)(C)=O)n1	EGFR L858R/T790M (H1975-clone #36, homozygous) (Homo sapiens, UniProt P00533, L858R/T790M)	1.91
CCc1cc(Nc2ncc(Br)c(Nc3ccc4nccnc4c3P(C)(C)=O)n2)c(OC)cc1N1CCC(N2CCN(CCc3ccc(C4CCC(=O)NC4=O)cc3)CC2)CC1 (stereo not shown)	EGFR L858R/T790M (H1975-clone #36, homozygous) (Homo sapiens, UniProt P00533, L858R/T790M)	0.86
COc1cc(N2CCC(N3CCN(C(=O)C4CCN(CC5CCN(c6ccc7c(c6)C(=O)N(C6CCC(=O)NC6=O)C7=O)CC5)CC4)CC3)CC2)ccc1Nc1ncc(Cl)c(Nc2ccccc2P(C)(C)=O)n1 (stereo not shown)	EGFR L858R/T790M (H1975-clone #36, homozygous) (Homo sapiens, UniProt P00533, L858R/T790M)	0.72
CP(C)(=O)c1c(Nc2nc(Nc3ccc(N4CCN(C5CN(CCC6CCN(c7ccc(C8CCC(=O)NC8=O)c(F)c7)CC6)C5)CC4)c(F)c3)ncc2Br)ccc2nccnc12 (stereo not shown)	EGFR L858R/T790M (H1975-clone #36, homozygous) (Homo sapiens, UniProt P00533, L858R/T790M)	0.86
COc1cc(N2CCN(C3CCN(CCc4ccc(C5CCC(=O)NC5=O)cc4)CC3)CC2)ccc1Nc1ncc(Cl)c(Nc2ccccc2N(C)S(C)(=O)=O)n1 (stereo not shown) [Example 120, hydrochloride]	EGFR L858R/T790M (H1975-clone #36, homozygous) (Homo sapiens, UniProt P00533, L858R/T790M)	0.72
CCc1cc(Nc2ncc(Br)c(Nc3ccc4nccnc4c3P(C)(C)=O)n2)c(OC)cc1N1CCC(N2CCN(C(=O)CCC3CN(c4ccc5c(c4)C(=O)N(C4CCC(=O)NC4=O)C5=O)C3)CC2)CC1 (stereo not shown)	EGFR L858R/T790M (H1975-clone #36, homozygous) (Homo sapiens, UniProt P00533, L858R/T790M)	0.73
COc1cc(N2CCN(CC3CCN(c4ccc(C5CCC(=O)NC5=O)cc4)CC3)CC2)c(C)cc1Nc1ncc(Br)c(Nc2ccc3nccnc3c2P(C)(C)=O)n1 (stereo not shown)	EGFR L858R/T790M (H1975-clone #36, homozygous) (Homo sapiens, UniProt P00533, L858R/T790M)	0.55

---

- TARGET_DESC: EGFR WT (BaF3 WT cells) (Homo sapiens)
- Construct: expressed in transfected cells; host or cells: BaF3
- Sequence (P00533 25-1210): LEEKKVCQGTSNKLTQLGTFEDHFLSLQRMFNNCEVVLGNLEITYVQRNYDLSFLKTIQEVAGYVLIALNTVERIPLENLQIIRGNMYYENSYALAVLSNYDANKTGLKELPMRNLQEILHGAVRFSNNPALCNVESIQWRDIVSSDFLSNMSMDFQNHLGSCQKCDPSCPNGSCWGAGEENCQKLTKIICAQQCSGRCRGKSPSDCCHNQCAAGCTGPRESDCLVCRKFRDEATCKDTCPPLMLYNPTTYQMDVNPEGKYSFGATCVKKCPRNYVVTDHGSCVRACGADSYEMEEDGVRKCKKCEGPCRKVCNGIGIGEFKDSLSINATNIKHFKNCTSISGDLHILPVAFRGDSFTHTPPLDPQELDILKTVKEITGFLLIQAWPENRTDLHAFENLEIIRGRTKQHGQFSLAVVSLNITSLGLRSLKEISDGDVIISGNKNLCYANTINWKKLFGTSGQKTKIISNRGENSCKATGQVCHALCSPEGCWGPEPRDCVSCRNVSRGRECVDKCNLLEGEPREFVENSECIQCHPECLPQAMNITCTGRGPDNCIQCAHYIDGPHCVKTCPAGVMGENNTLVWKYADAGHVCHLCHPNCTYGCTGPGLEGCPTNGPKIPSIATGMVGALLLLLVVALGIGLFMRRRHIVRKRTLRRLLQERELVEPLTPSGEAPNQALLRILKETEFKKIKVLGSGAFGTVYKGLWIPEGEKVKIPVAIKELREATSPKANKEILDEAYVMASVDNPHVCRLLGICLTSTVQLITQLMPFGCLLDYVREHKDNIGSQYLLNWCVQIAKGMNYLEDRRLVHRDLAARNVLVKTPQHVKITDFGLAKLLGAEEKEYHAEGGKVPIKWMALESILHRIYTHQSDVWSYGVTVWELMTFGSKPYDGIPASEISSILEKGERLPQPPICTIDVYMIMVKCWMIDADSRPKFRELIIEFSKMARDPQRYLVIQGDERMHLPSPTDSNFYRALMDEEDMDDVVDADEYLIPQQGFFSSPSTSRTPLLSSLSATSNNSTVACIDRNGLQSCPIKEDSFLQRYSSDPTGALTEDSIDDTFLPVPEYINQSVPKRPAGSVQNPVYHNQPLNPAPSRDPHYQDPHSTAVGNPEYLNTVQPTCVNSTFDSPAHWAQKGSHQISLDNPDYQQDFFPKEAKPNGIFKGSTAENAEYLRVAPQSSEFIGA
- TEST: EGFR degradation HTRF assay, BaF3 WT cells
- Type: cell-based
- DETAILS: BaF3 WT, 16h treatment

MOLECULE	DC50
CCc1cc(Nc2ncc(Br)c(Nc3ccc4nccnc4c3P(C)(C)=O)n2)c(OC)cc1N1CCC(N2CCN(CCc3ccc(C4CCC(=O)NC4=O)c(F)c3)CC2)CC1 (stereo not drawn)	> 10 µM
COc1cc(N2CCC(N3CCN(C(=O)CCCCN4CCN(c5ccc6c(c5)C(=O)N(C5CCC(=O)NC5=O)C6=O)CC4)CC3)CC2)ccc1Nc1ncc(Cl)c(Nc2ccccc2N(C)S(C)(=O)=O)n1 (stereo not drawn)	> 10 µM
CCc1cc(Nc2ncc(Br)c(Nc3ccc4nccnc4c3P(C)(C)=O)n2)c(OC)cc1N1CCC(N2CCN(C(=O)[C@@H]3CCN(c4ccc5c(c4)C(=O)N(C4CCC(=O)NC4=O)C5=O)C3)CC2)CC1 (stereo partly drawn)	> 10 µM
CCc1cc(Nc2ncc(Br)c(Nc3ccc4nccnc4c3P(C)(C)=O)n2)c(OC)cc1N1CCC(N2CCN(CCN(C)c3ccc4c(c3)CN(C3CCC(=O)NC3=O)C4=O)CC2)CC1 (stereo not drawn)	> 10 µM
CCc1cc(Nc2ncc(Br)c(Nc3ccc4nccnc4c3P(C)(C)=O)n2)c(OC)cc1N1CCC(N2CCN(C(=O)CCN3CCN(c4ccc5c(c4)C(=O)N(C4CCC(=O)NC4=O)C5=O)CC3)CC2)CC1 (stereo not drawn)	> 10 µM
CCc1cc(Nc2ncc(Br)c(Nc3ccc4nccnc4c3P(C)(C)=O)n2)c(OC)cc1N1CCC(N2CCN(CCc3ccc(NC4CCC(=O)NC4=O)cc3)CC2)CC1 (stereo not drawn)	2.92 µM

---

- TARGET_DESC: EGFR L858R/T790M/C797S (BaF3-LTC cells) (Homo sapiens, UniProt P00533, C797S/L858R/T790M)
- Construct: expressed in transfected cells; host or cells: BaF3
- TEST: EGFR degradation HTRF assay, BaF3-LTC cells
- Assay type: cell-based
- DETAILS: BaF3-LTC, 16h treatment, maximum percentage of degradation; read-out: LTC Dmax (%)
ENDPOINT_LABEL: Dmax

MOLECULE	TARGET_DESC	RESULT
CCc1cc(Nc2ncc(Br)c(Nc3ccc4nc(C)ccc4c3P(C)(C)=O)n2)c(OC)cc1N1CCC(N2CCN(C(=O)C3CN(CCc4cc(F)c(C5CCC(=O)NC5=O)c(F)c4)C3)CC2)CC1 (stereo not drawn)	EGFR L858R/T790M/C797S (BaF3-LTC cells) (Homo sapiens, UniProt P00533, C797S/L858R/T790M)	91.3%
CCc1cc(Nc2ncc(Br)c(Nc3ccc4nc(C)ccc4c3P(C)(C)=O)n2)c(OC)cc1N1CCC(N2CCN(C(=O)C3CCN(c4ccc5c(c4)C(C)(C)C(=O)N5C4CCC(=O)NC4=O)CC3)CC2)CC1 (stereo not drawn)	EGFR L858R/T790M/C797S (BaF3-LTC cells) (Homo sapiens, UniProt P00533, C797S/L858R/T790M)	92.5%
CCc1cc(Nc2ncc(Br)c(Nc3ccc4nc(C)ccc4c3P(C)(C)=O)n2)c(OC)cc1N1CCC(N2CCN(CCc3cc(F)c(C4CCC(=O)NC4=O)c(F)c3)CC2)CC1 (stereo not drawn)	EGFR L858R/T790M/C797S (BaF3-LTC cells) (Homo sapiens, UniProt P00533, C797S/L858R/T790M)	87.8%
